Entries with reported MIC on S. aureus RN4250 (tetracycline efflux, Tet K)
PROPERTY MEASURED: MIC (µg/mL)

structure_notation=CN[C@H](CC(C)C)C(=O)N[C@H]1C(=O)N[C@@H](CC(N)=O)C(=O)N[C@H]2C(=O)N[C@H]3C(=O)N[C@H](C(=O)N[C@H](C(=O)O)c4cc(O)cc(O)c4-c4cc3ccc4O)[C@H](O)c3ccc(c(Cl)c3)Oc3cc2cc(c3O[C@@H]2O[C@H](CO)[C@@H](O)[C@H](O)[C@H]2O[C@H]2C[C@](C)(N)[C@H](O)[C@H](C)O2)Oc2ccc(cc2Cl)[C@H]1O property_measured=MIC obs_value=0.25
structure_notation=CN(C)c1cc(CNCC(C)(C)C)c(O)c2c1C[C@H]1C[C@H]3[C@H](N(C)C)C(O)=C(C(N)=O)C(=O)[C@@]3(O)C(O)=C1C2=O property_measured=MIC obs_value=0.25
